Source of measurements: ChEMBL document CHEMBL5046275

assay target: CDK6/cyclin D3 (Homo sapiens, UniProt Q00534)
Sequence (P30281 whole entry, the tested form may be a part): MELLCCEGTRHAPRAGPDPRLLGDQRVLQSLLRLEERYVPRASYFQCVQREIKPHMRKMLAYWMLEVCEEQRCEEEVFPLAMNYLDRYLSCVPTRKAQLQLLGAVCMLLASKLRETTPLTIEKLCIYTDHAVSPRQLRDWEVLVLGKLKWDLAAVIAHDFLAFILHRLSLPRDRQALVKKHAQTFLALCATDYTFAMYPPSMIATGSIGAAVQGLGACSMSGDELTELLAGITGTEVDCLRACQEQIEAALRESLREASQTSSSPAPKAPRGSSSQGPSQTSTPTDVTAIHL
Sequence (Q00534 whole entry, the tested form may be a part): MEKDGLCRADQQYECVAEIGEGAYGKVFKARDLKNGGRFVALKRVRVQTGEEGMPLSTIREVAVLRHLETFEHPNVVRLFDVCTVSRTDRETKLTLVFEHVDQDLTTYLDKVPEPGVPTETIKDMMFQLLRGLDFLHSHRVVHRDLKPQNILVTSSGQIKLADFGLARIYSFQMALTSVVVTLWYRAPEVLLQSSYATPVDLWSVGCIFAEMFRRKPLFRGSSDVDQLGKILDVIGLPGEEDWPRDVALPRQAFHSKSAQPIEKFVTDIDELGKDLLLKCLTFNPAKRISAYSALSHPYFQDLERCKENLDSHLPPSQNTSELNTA
experiment description: Inhibition of full length N-terminal GST fused human CDK6 (1 to 326 residues)/CyclinD3 (1 to 292 residues) expressed in baculovirus expression system using FL peptide as substrate preincubated for 30 mins followed by substrate addition and further incubated for 120 mins by EZ reader method
pIC50: −log10 of the molar value.
property measured: pIC50

CN1CCC([C@@](C)(O)c2ccc3cnc(Nc4cc(C(N)=O)ncc4F)cc3n2)CC1 ... 5.91
CC(C)c1cc(Nc2cc3nc([C@](C)(O)C4CCN(C)CC4)ccc3cn2)c(F)cn1 ... 6.64
CN1CCC([C@@](C)(O)c2ccc3cnc(Nc4cc(N5CCCC5)ncc4F)cc3n2)CC1 ... 6.57

(I) CC(C)Oc1cc(Nc2cc3nc([C@](C)(O)C4CCN(C)CC4)ccc3cn2)c(F)cn1
(II) CN1CCC([C@@](C)(O)c2ccc3cnc(Nc4cc(OC5CCC5)ncc4F)cc3n2)CC1
(III) CN1CCC([C@@](C)(O)c2ccc3cnc(Nc4cc(C(F)(F)F)c(C#N)cc4F)cc3n2)CC1
Rank entries according to their pIC50, from the largest number down. Put the labels in the requested order and write them down.
I, II, III
(I: 6.57, II: 6.09, III: 5.85)

(1) CC(C)c1cc(Nc2cc3nc([C@](C)(O)C4CCN(C)CC4)ccc3cn2)c(F)cc1C#N
(2) CCc1cc(Nc2cc3nc([C@](C)(O)C4CCN(C)CC4)ccc3cn2)c(F)cn1
Could you check which of 1 and 2 has a smaller value for pIC50? Answer by stating the label of the chosen item.
1
(1: 6.32, 2: 6.63)
